- Assayed Target: outer ubiquinone binding site of complex III (IIIQO) (Rattus norvegicus, UniProt P00159+P20788)
- Construct: freshly isolated muscle mitochondria were assayed; from tissue; host or cells: rat skeletal muscle mitochondria (Wistar, Harlan Laboratories)
- Assay Method Text: High-throughput screen: ROS production from outer ubiquinone binding site of complex III (IIIQO)
- Format: biochemical
- Recorded Conditions: Table 9; percent change in ROS from DMSO controls; read-out: IIIQo
Observation Type: inhibition at 2.5 µM (%)

Compound	Observation Type	Reading
COc1cccc(CCNC2C3CC4CC(C3)CC2C4)c1 (centres unmarked) [Compound 26]	inhibition at 2.5 µM	1.8
COc1ccc(Cl)cc1N(Cc1ccccc1)Cc1ccccc1 [Compound 34]	inhibition at 2.5 µM	49.4
Cc1ccc(C(C)C)c(OCC(O)CN2CCN(Cc3ccccc3)CC2)c1.Cl.Cl (centres unmarked) [Compound 21]	inhibition at 2.5 µM	9.9
O=C(O)C1CCCCC1C(=O)NC1CCCCC1 (centres unmarked) [Compound 19]	inhibition at 2.5 µM	-1.2
Cc1ccccc1NS(=O)(=O)c1ccc(C2CCCCC2)cc1 [Compound 9]	inhibition at 2.5 µM	2.7
O=C(O)CCC(=O)Nc1ccc(-c2nc3ccccc3o2)cc1 [Compound 50]	inhibition at 2.5 µM	-2.5
COC(=O)c1ccc(CN(CCc2ccccc2)Cc2ccccc2)cc1 [Compound 43]	inhibition at 2.5 µM	23.2
COc1ccc(NS(=O)(=O)c2cccc(C(=O)Nc3ccc(C)cc3)c2)cc1 [Compound 11]	inhibition at 2.5 µM	1.9
CC(=O)Nc1ccc(S(=O)(=O)Nc2cccc(C)c2)cc1 [Compound 10]	inhibition at 2.5 µM	2.8
CC1CC(C)(C)N(C=O)c2ccccc21 (centres unmarked) [Compound 71]	inhibition at 2.5 µM	-6.3
COc1ccc(-c2ccccc2)cc1NCC1=CC[C@H]2C[C@@H]1C2(C)C [Compound 41]	inhibition at 2.5 µM	24.7
O=C(Nc1ccccc1C(=O)O)c1ccccc1 [Compound 18]	inhibition at 2.5 µM	-5.4
CN(C)CCN(Cc1ccccc1)Cc1ccccc1Br [Compound 23]	inhibition at 2.5 µM	8.8
CN(C)CCCN(CCCN(C)C)Cc1cccnc1 [Compound 33]	inhibition at 2.5 µM	-6.1
CCCCN(Cc1ccccc1)Cc1cc(Cl)cc(Cl)c1O [Compound 38]	inhibition at 2.5 µM	31.3
CCN1CCN(C/C=C/c2ccc(N(C)C)cc2)CC1 [Compound 48]	inhibition at 2.5 µM	5.7
CN(C)CCN(Cc1ccccc1)Cc1ccc(C(F)(F)F)cc1 [Compound 29]	inhibition at 2.5 µM	3.2
O=S(=O)(Nc1ccc(Br)cc1)c1ccc(C2CCCCC2)cc1 [Compound 8]	inhibition at 2.5 µM	-7.6
O=C(O)CSc1cccc(C(=O)Nc2ccc(Br)cc2)c1 [Compound 47]	inhibition at 2.5 µM	0
CC1=CC(C)(C)N(Cc2ccc([N+](=O)[O-])cc2)c2ccccc21 [Compound 37]	inhibition at 2.5 µM	32.1

The reported measurements were obtained from patent US20140128352A1.
